Tested on: HCI-023 (organoid from a triple-negative breast cancer xenograft)
Test: CTG-3D luminescence at 96 h relative to day-0 seeding control (ratio to day 0); higher = more growth / less cytotoxicity; PDxO 3D drug screen (set 2), 96 h, CTG-3D normalised to day-0 seeding control.
Details: 12.5 pM; days in culture: 252
In this section, each of the compounds is paired with its reported CTG-3D luminescence at 96 h.
measure name: CTG-3D luminescence at 96 h

{"compound": "CCOc1ccn(-c2ccc(F)cc2)c(=O)c1C(=O)Nc1ccc(Oc2ccnc(N)c2Cl)c(F)c1", "result value": 1.99}
{"compound": "O=C(c1cc(Cc2n[nH]c(=O)c3ccccc23)ccc1F)N1CCN(C(=O)C2CC2)CC1", "result value": 2.12}
{"compound": "COc1cccc2c1C(=O)c1c(O)c3c(c(O)c1C2=O)C[C@@](O)(C(=O)CO)C[C@@H]3O[C@H]1C[C@H](N)[C@@H](O)[C@H](C)O1 [epirubicin]", "result value": 2.29}
{"compound": "C[C@@H](Nc1cc(F)cc(F)c1)c1cc(C(=O)N(C)C)cc2c(=O)cc(N3CCOCC3)oc12", "result value": 2.12}
{"compound": "Nc1cc(C(F)(F)F)c(-c2cc(N3CCOCC3)nc(N3CCOCC3)n2)cn1", "result value": 2.06}
